Tested on: Bt549
Test: Cytotoxicity in vitro (CellTiter-Glo viability), Bt549
Assay type: cell-based, human
Details: Bt549 (TNBC), 72 hours
Non-standard residues stand in square brackets, D forms with d. Residues, ends and D or L forms follow the SMILES beside them. *: point of attachment. Dolaproine = CO[C@@H]([C@@H]1CCCN1)[C@@H](C)C(=O)O; Dil = CC[C@H](C)[C@H](NC)[C@@H](CC(=O)O)OC; X1 = C[C@@H](N*)[C@@H](O)c1ccccc1; NMeV = CN[C@H](C(=O)O)C(C)C
Listing: EC50 of selected molecules
quantity_measured: EC50 (nM)

molecule	quantity_measured	reading_unit	result_value
CC[C@H](C)[C@@H]([C@@H](CC(=O)N1CCC[C@H]1[C@H](OC)[C@@H](C)C(=O)N[C@H](C)[C@@H](O)c1ccccc1)OC)N(C)C(=O)[C@@H](NC(=O)[C@@H](NC)C(C)C)C(C)C [MMAE, monomethyl auristatin E, reference compound] (H-[NMeV]V[Dil][Dolaproine]-X1)	EC50	nM	0.047
COc1cc2cc(c1Cl)N(C)C(=O)C[C@H](OC(=O)[C@H](C)N(C)C(=O)CCS)[C@]1(C)O[C@H]1[C@H](C)[C@@H]1C[C@@](O)(NC(=O)O1)[C@H](OC)/C=C/C=C(\C)C2	EC50	nM	0.047
